test: Solubility determinations in purified water and buffers; assay type: physicochemical; conditions: pH 3 buffer, 18 °C, pH 3, aqueous buffer, thermodynamic from solid, pH 3 Buffer, 18-23° C., t = 24 h; read-out: Measured solubilities (mg/ml), bound
recorded-metric: solubility at 24 h

Per the record, COc1cc(F)cc([C@@H](CO)NC(=O)[C@@H](C)N2Cc3ccc(-c4nc(NC5CCOCC5)ncc4Cl)cc3C2=O)c1 has solubility at 24 h of < 0.1 mg/mL

----------
assay: Solubility determinations in purified water and buffers; format: physicochemical; conditions: pH 1.2 buffer, 18 °C, pH 1.2, simulated gastric fluid, thermodynamic from solid, pH 1.2 Buffer, 18-23° C., t = 24 h; read-out: Measured solubilities (mg/ml), bound
recorded-metric: solubility at 24 h

Per the record, COc1cc(F)cc([C@@H](CO)NC(=O)[C@@H](C)N2Cc3ccc(-c4nc(NC5CCOCC5)ncc4Cl)cc3C2=O)c1 has solubility at 24 h of ≥ 0.1 mg/mL

----------
test: Solubility determinations in non-aqueous solvents; format: physicochemical; settings: PEG 400, 18 °C, organic solvent or mixture, thermodynamic from solid; read-out: Estimated maximum solubilities (mg/ml), at 18 to 23° C.
recorded-metric: solubility at 72 h (mg/mL)
Number in mg/mL, nothing else.

Per the record, COc1cc(F)cc([C@@H](CO)NC(=O)[C@@H](C)N2Cc3ccc(-c4nc(NC5CCOCC5)ncc4Cl)cc3C2=O)c1 has solubility at 72 h of 229

----------
experiment: Solubility determinations in purified water and buffers; type: physicochemical; conditions: purified water, 18 °C, water, thermodynamic from solid, Purified water, 18-23° C., t = 24 h; read-out: Measured solubilities (mg/ml), bound
recorded-metric: solubility at 24 h

Per the record, COc1cc(F)cc([C@@H](CO)NC(=O)[C@@H](C)N2Cc3ccc(-c4nc(NC5CCOCC5)ncc4Cl)cc3C2=O)c1 has solubility at 24 h of < 0.1 mg/mL

----------
experiment: Solubility determinations in non-aqueous solvents; format: physicochemical; conditions: ethanol, 18 °C, organic solvent or mixture, thermodynamic from solid; read-out: Estimated maximum solubilities (mg/ml), at 18 to 23° C.
recorded-metric: solubility at 72 h (mg/mL)
Number in mg/mL, nothing else.

Per the record, COc1cc(F)cc([C@@H](CO)NC(=O)[C@@H](C)N2Cc3ccc(-c4nc(NC5CCOCC5)ncc4Cl)cc3C2=O)c1 has solubility at 72 h of 337

----------
experiment: Solubility determinations in purified water and buffers; type: physicochemical; details: pH 6 buffer, 18 °C, pH 6, aqueous buffer, thermodynamic from solid, pH 6 Buffer, 18-23° C., t = 24 h; read-out: Measured solubilities (mg/ml), bound
recorded-metric: solubility at 24 h

Per the record, COc1cc(F)cc([C@@H](CO)NC(=O)[C@@H](C)N2Cc3ccc(-c4nc(NC5CCOCC5)ncc4Cl)cc3C2=O)c1 has solubility at 24 h of < 0.1 mg/mL

----------
experiment: Solubility determinations in purified water and buffers; assay type: physicochemical; conditions: pH 8 buffer, 18 °C, pH 8, aqueous buffer, thermodynamic from solid, pH 8 Buffer, 18-23° C., t = 24 h; read-out: Measured solubilities (mg/ml), bound
recorded-metric: solubility at 24 h

Per the record, COc1cc(F)cc([C@@H](CO)NC(=O)[C@@H](C)N2Cc3ccc(-c4nc(NC5CCOCC5)ncc4Cl)cc3C2=O)c1 has solubility at 24 h of < 0.1 mg/mL
